Exercise: state measured Inhibition for each of the compounds provided.
System: Cryptococcus neoformans
experimental_details: In vitro antifungal activity against Cryptococcus neoformans
Type: functional

Record excerpt, results attached:
>  <compound>
Cc1nn(CC(C)C)c(=O)n1-c1ccc(N2CCN(c3ccc(OC[C@@H]4COC(Cn5cncn5)(c5ccc(Cl)cc5Cl)O4)cc3)CC2)cc1 (stereo partly specified)

>  <Inhibition>
100 µg/mL

$$$$
>  <compound>
CCCn1ncn(-c2ccc(N3CCN(c4ccc(OC[C@@H]5COC(Cn6ccnc6)(c6ccc(Cl)cc6Cl)O5)cc4)CC3)cc2)c1=O (stereo partly specified)

>  <Inhibition>
>100 µg/mL

$$$$
>  <compound>
CC(C)Cn1ncn(-c2ccc(N3CCN(c4ccc(OC[C@@H]5COC(Cn6ccnc6)(c6ccc(Cl)cc6Cl)O5)cc4)CC3)cc2)c1=O (stereo partly specified)

>  <Inhibition>
>100 µg/mL

$$$$
>  <compound>
CCC(C)n1nc(C)n(-c2ccc(N3CCN(c4ccc(OC[C@@H]5COC(Cn6cncn6)(c6ccc(Cl)cc6Cl)O5)cc4)CC3)cc2)c1=O (stereo partly specified)

>  <Inhibition>
>100 µg/mL

$$$$
>  <compound>
Cc1nn(C(C)C)c(=O)n1-c1ccc(N2CCN(c3ccc(OC[C@@H]4COC(Cn5ccnc5)(c5ccc(Cl)cc5Cl)O4)cc3)CC2)cc1 (stereo partly specified)

>  <Inhibition>
>100 µg/mL

$$$$
>  <compound>
O=c1n(-c2ccc(N3CCN(c4ccc(OC[C@@H]5COC(Cn6cncn6)(c6ccc(Cl)cc6Cl)O5)cc4)CC3)cc2)cnn1CC1CC1 (stereo partly specified)

>  <Inhibition>
>100 µg/mL

$$$$
>  <compound>
Cn1ncn(-c2ccc(N3CCN(c4ccc(OC[C@@H]5COC(Cn6cncn6)(c6ccc(Cl)cc6Cl)O5)cc4)CC3)cc2)c1=O (stereo partly specified)

>  <Inhibition>
100 µg/mL

$$$$
>  <compound>
Cc1nn(C)c(=O)n1-c1ccc(N2CCN(c3ccc(OC[C@@H]4COC(Cn5cncn5)(c5ccc(Cl)cc5Cl)O4)cc3)CC2)cc1 (stereo partly specified)

>  <Inhibition>
>100 µg/mL

$$$$
>  <compound>
CCn1ncn(-c2ccc(N3CCN(c4ccc(OC[C@@H]5COC(Cn6cncn6)(c6ccc(Cl)cc6Cl)O5)cc4)CC3)cc2)c1=O (stereo partly specified)

>  <Inhibition>
10 µg/mL

$$$$
>  <compound>
CCCn1ncn(-c2ccc(N3CCN(c4ccc(OC[C@@H]5COC(Cn6cncn6)(c6ccc(Cl)cc6Cl)O5)cc4)CC3)cc2)c1=O (stereo partly specified)

>  <Inhibition>
100 µg/mL

$$$$

Please look at the items below and tell me Inhibition for each one, in order.
1. Cc1nnc(O)n1-c1ccc(N2CCN(c3ccc(OC[C@@H]4COC(Cn5ccnc5)(c5ccc(Cl)cc5Cl)O4)cc3)CC2)cc1 (stereo partly specified)
2. CCCn1nc(C)n(-c2ccc(N3CCN(c4ccc(OC[C@@H]5COC(Cn6cncn6)(c6ccc(Cl)cc6Cl)O5)cc4)CC3)cc2)c1=O (stereo partly specified)
3. CCCCn1ncn(-c2ccc(N3CCN(c4ccc(OC[C@@H]5COC(Cn6ccnc6)(c6ccc(Cl)cc6Cl)O5)cc4)CC3)cc2)c1=O (stereo partly specified)
4. CC(C)n1ncn(-c2ccc(N3CCN(c4ccc(OC[C@@H]5COC(Cn6cncn6)(c6ccc(Cl)cc6Cl)O5)cc4)CC3)cc2)c1=O (stereo partly specified)
5. CCC(C)n1ncn(-c2ccc(N3CCN(c4ccc(OC[C@@H]5COC(Cn6cncn6)(c6ccc(Cl)cc6Cl)O5)cc4)CC3)cc2)c1=O (stereo partly specified)

1: 100 µg/mL; 2: 100 µg/mL; 3: >100 µg/mL; 4: >100 µg/mL; 5: 100 µg/mL

Please look at the items below and tell me Inhibition for each one, in order.
1. CCn1ncn(-c2ccc(N3CCN(c4ccc(OC[C@@H]5COC(Cn6ccnc6)(c6ccc(Cl)cc6Cl)O5)cc4)CC3)cc2)c1=O (stereo partly specified)
2. Cc1nn(C(C)C)c(=O)n1-c1ccc(N2CCN(c3ccc(OC[C@@H]4COC(Cn5cncn5)(c5ccc(Cl)cc5Cl)O4)cc3)CC2)cc1 (stereo partly specified)
3. CC(C)CCn1ncn(-c2ccc(N3CCN(c4ccc(OC[C@@H]5COC(Cn6cncn6)(c6ccc(Cl)cc6Cl)O5)cc4)CC3)cc2)c1=O (stereo partly specified)
4. Oc1nncn1-c1ccc(N2CCN(c3ccc(OC[C@@H]4COC(Cn5cncn5)(c5ccc(Cl)cc5Cl)O4)cc3)CC2)cc1 (stereo partly specified)
5. CCCn1nc(CC)n(-c2ccc(N3CCN(c4ccc(OC[C@@H]5COC(Cn6ccnc6)(c6ccc(Cl)cc6Cl)O5)cc4)CC3)cc2)c1=O (stereo partly specified)
6. CCC(C)n1ncn(-c2ccc(N3CCN(c4ccc(OC[C@@H]5COC(Cn6ccnc6)(c6ccc(Cl)cc6Cl)O5)cc4)CC3)cc2)c1=O (stereo partly specified)

[">100 µg/mL", ">100 µg/mL", ">100 µg/mL", ">100 µg/mL", ">100 µg/mL", "10 µg/mL"]
